# Run Description: Plasma pharmacokinetics of BI 187004 after single oral doses (LC–MS/MS)
# Run Conditions: male, human, plasma, po, 80 mg, BI 187004 plasma concentrations, 80 mg single oral, planned time 3 h, gMean
Measurement Name: concentration at 3 h (µM)
Write it as a number; the unit µM goes unstated.

Ask: For the compound N#Cc1ccc2c(c1)[C@H]1CCCN(C(=O)c3ccc4[nH]cnc4c3)[C@H]1C2 , give its reported concentration at 3 h.
Result: 2.07

====

# Run Description: Plasma pharmacokinetics of BI 187004 after single oral doses (LC–MS/MS)
# Run Conditions: male, human, plasma, po, 240 mg, BI 187004 plasma concentrations, Mean, 240 mg single oral, planned time 36 h
Measurement Name: concentration at 36 h (nM)
Write it as a number; the unit nM goes unstated.

Ask: For the compound N#Cc1ccc2c(c1)[C@H]1CCCN(C(=O)c3ccc4[nH]cnc4c3)[C@H]1C2 [BI 187004] , give its reported concentration at 36 h.
Result: 926

====

# Run Description: Plasma pharmacokinetics of BI 187004 after single oral doses (LC–MS/MS)
# Run Conditions: male, human, plasma, po, 240 mg, C24 gMean (%gCV), 240 mg single oral dose
Measurement Name: concentration at 24 h (nM)
Write it as a number; the unit nM goes unstated.

Ask: For the compound N#Cc1ccc2c(c1)[C@H]1CCCN(C(=O)c3ccc4[nH]cnc4c3)[C@H]1C2 , give its reported concentration at 24 h.
Result: 2130

====

# Run Description: Plasma pharmacokinetics of BI 187004 after single oral doses (LC–MS/MS)
# Run Conditions: male, human, plasma, po, 160 mg, BI 187004 plasma concentrations, 160 mg single oral, planned time 2.5 h, Min
Measurement Name: concentration at 2.5 h (µM)
Write it as a number; the unit µM goes unstated.

Ask: For the molecule N#Cc1ccc2c(c1)[C@H]1CCCN(C(=O)c3ccc4[nH]cnc4c3)[C@H]1C2 [BI 187004] , give its reported concentration at 2.5 h.
Result: 6.07

====

# Run Description: Plasma pharmacokinetics of BI 187004 after single oral doses (LC–MS/MS)
# Run Conditions: male, human, plasma, po, 40 mg, BI 187004 plasma concentrations, 40 mg single oral, planned time 2 h, Mean
Measurement Name: concentration at 2 h (nM)
Write it as a number; the unit nM goes unstated.

Ask: For the molecule N#Cc1ccc2c(c1)[C@H]1CCCN(C(=O)c3ccc4[nH]cnc4c3)[C@H]1C2 [BI 187004] , give its reported concentration at 2 h.
Result: 1760

====

# Run Description: Plasma pharmacokinetics of BI 187004 after single oral doses (LC–MS/MS)
# Run Conditions: male, human, plasma, po, 2.5 mg, Plasma concentration gMean, 2.5 mg single oral; 4 h
Measurement Name: concentration at 4 h (nM)
Write it as a number; the unit nM goes unstated.

Ask: For the compound N#Cc1ccc2c(c1)[C@H]1CCCN(C(=O)c3ccc4[nH]cnc4c3)[C@H]1C2 , give its reported concentration at 4 h.
Result: 5.87

====

# Run Description: Plasma pharmacokinetics of BI 187004 after single oral doses (LC–MS/MS)
# Run Conditions: male, human, plasma, po, 80 mg, BI 187004 plasma concentrations, 80 mg single oral, planned time 4 h, gMean
Measurement Name: concentration at 4 h (nM)
Write it as a number; the unit nM goes unstated.

Ask: For the compound N#Cc1ccc2c(c1)[C@H]1CCCN(C(=O)c3ccc4[nH]cnc4c3)[C@H]1C2 , give its reported concentration at 4 h.
Result: 2020

====

# Run Description: Plasma pharmacokinetics of BI 187004 after single oral doses (LC–MS/MS)
# Run Conditions: male, human, plasma, po, 2.5 mg
Measurement Name: AUC(0-t) (µM·h)
Write it as a number; the unit µM·h goes unstated.

Ask: For the molecule N#Cc1ccc2c(c1)[C@H]1CCCN(C(=O)c3ccc4[nH]cnc4c3)[C@H]1C2 [BI 187004] , give its reported AUC(0-t).
Result: 0.212

====

# Run Description: Plasma pharmacokinetics of BI 187004 after single oral doses (LC–MS/MS)
# Run Conditions: male, human, plasma, oral, 80 mg, Plasma C24 gMean (range), 80 mg single dose; 24 h
Measurement Name: concentration at 24 h (nM)
Write it as a number; the unit nM goes unstated.

Ask: For the compound N#Cc1ccc2c(c1)[C@H]1CCCN(C(=O)c3ccc4[nH]cnc4c3)[C@H]1C2 , give its reported concentration at 24 h.
Result: 878

====

# Run Description: Plasma pharmacokinetics of BI 187004 after single oral doses (LC–MS/MS)
# Run Conditions: male, human, plasma, oral, 20 mg, Plasma C24 gMean (range), 20 mg single dose; 24 h
Measurement Name: concentration at 24 h (nM)
Write it as a number; the unit nM goes unstated.

Ask: For the compound N#Cc1ccc2c(c1)[C@H]1CCCN(C(=O)c3ccc4[nH]cnc4c3)[C@H]1C2 , give its reported concentration at 24 h.
Result: 161

====

# Run Description: Plasma pharmacokinetics of BI 187004 after single oral doses (LC–MS/MS)
# Run Conditions: male, human, plasma, po, 80 mg, BI 187004 plasma concentrations, 80 mg single oral, planned time 72 h, Max
Measurement Name: concentration at 72 h (nM)
Write it as a number; the unit nM goes unstated.

Ask: For the compound N#Cc1ccc2c(c1)[C@H]1CCCN(C(=O)c3ccc4[nH]cnc4c3)[C@H]1C2 , give its reported concentration at 72 h.
Result: 234

====

# Run Description: Plasma pharmacokinetics of BI 187004 after single oral doses (LC–MS/MS)
# Run Conditions: male, human, plasma, po, 40 mg, BI 187004 plasma concentrations, 40 mg single oral, planned time 5 h, Max
Measurement Name: concentration at 5 h (nM)
Write it as a number; the unit nM goes unstated.

Ask: For the compound N#Cc1ccc2c(c1)[C@H]1CCCN(C(=O)c3ccc4[nH]cnc4c3)[C@H]1C2 , give its reported concentration at 5 h.
Result: 1610

====

# Run Description: Plasma pharmacokinetics of BI 187004 after single oral doses (LC–MS/MS)
# Run Conditions: male, human, plasma, po, 40 mg, BI 187004 plasma concentrations, 40 mg single oral, planned time 1 h, Min
Measurement Name: concentration at 1 h (nM)
Write it as a number; the unit nM goes unstated.

Ask: For the molecule N#Cc1ccc2c(c1)[C@H]1CCCN(C(=O)c3ccc4[nH]cnc4c3)[C@H]1C2 , give its reported concentration at 1 h.
Result: 974

====

# Run Description: Plasma pharmacokinetics of BI 187004 after single oral doses (LC–MS/MS)
# Run Conditions: male, human, plasma, po, 2.5 mg, Plasma concentration Mean, 2.5 mg single oral; 3 h
Measurement Name: concentration at 3 h (nM)
Write it as a number; the unit nM goes unstated.

Ask: For the compound N#Cc1ccc2c(c1)[C@H]1CCCN(C(=O)c3ccc4[nH]cnc4c3)[C@H]1C2 [BI 187004] , give its reported concentration at 3 h.
Result: 6.87

====

# Run Description: Plasma pharmacokinetics of BI 187004 after single oral doses (LC–MS/MS)
# Run Conditions: male, human, plasma, po, 5 mg, Plasma concentration gMean, 5 mg single oral; 10 h
Measurement Name: concentration at 10 h (nM)
Write it as a number; the unit nM goes unstated.

Ask: For the compound N#Cc1ccc2c(c1)[C@H]1CCCN(C(=O)c3ccc4[nH]cnc4c3)[C@H]1C2 , give its reported concentration at 10 h.
Result: 56.8

====

# Run Description: Plasma pharmacokinetics of BI 187004 after single oral doses (LC–MS/MS)
# Run Conditions: male, human, plasma, po, 20 mg, BI 187004 plasma concentrations, 20 mg single oral, planned time 6 h, Median
Measurement Name: concentration at 6 h (nM)
Write it as a number; the unit nM goes unstated.

Ask: For the compound N#Cc1ccc2c(c1)[C@H]1CCCN(C(=O)c3ccc4[nH]cnc4c3)[C@H]1C2 , give its reported concentration at 6 h.
Result: 529

====

# Run Description: Plasma pharmacokinetics of BI 187004 after single oral doses (LC–MS/MS)
# Run Conditions: male, human, plasma, po, 40 mg, BI 187004 plasma concentrations, 40 mg single oral, planned time 36 h, Mean
Measurement Name: concentration at 36 h (nM)
Write it as a number; the unit nM goes unstated.

Ask: For the compound N#Cc1ccc2c(c1)[C@H]1CCCN(C(=O)c3ccc4[nH]cnc4c3)[C@H]1C2 , give its reported concentration at 36 h.
Result: 163

====

# Run Description: Plasma pharmacokinetics of BI 187004 after single oral doses (LC–MS/MS)
# Run Conditions: male, human, plasma, po, 10 mg, Plasma concentration gMean, 10 mg single oral; 0.5 h
Measurement Name: concentration at 0.5 h (nM)
Write it as a number; the unit nM goes unstated.

Ask: For the compound N#Cc1ccc2c(c1)[C@H]1CCCN(C(=O)c3ccc4[nH]cnc4c3)[C@H]1C2 [BI 187004] , give its reported concentration at 0.5 h.
Result: 279
